We begin with a simple list: items and their reported IC50 Nav1.3 (µM); inhibition of channel current, patch clamp.
# system_under_test: rNaV1.3 channels (rat, UniProt P08104 1-1951)
# Sequence (P08104 whole entry): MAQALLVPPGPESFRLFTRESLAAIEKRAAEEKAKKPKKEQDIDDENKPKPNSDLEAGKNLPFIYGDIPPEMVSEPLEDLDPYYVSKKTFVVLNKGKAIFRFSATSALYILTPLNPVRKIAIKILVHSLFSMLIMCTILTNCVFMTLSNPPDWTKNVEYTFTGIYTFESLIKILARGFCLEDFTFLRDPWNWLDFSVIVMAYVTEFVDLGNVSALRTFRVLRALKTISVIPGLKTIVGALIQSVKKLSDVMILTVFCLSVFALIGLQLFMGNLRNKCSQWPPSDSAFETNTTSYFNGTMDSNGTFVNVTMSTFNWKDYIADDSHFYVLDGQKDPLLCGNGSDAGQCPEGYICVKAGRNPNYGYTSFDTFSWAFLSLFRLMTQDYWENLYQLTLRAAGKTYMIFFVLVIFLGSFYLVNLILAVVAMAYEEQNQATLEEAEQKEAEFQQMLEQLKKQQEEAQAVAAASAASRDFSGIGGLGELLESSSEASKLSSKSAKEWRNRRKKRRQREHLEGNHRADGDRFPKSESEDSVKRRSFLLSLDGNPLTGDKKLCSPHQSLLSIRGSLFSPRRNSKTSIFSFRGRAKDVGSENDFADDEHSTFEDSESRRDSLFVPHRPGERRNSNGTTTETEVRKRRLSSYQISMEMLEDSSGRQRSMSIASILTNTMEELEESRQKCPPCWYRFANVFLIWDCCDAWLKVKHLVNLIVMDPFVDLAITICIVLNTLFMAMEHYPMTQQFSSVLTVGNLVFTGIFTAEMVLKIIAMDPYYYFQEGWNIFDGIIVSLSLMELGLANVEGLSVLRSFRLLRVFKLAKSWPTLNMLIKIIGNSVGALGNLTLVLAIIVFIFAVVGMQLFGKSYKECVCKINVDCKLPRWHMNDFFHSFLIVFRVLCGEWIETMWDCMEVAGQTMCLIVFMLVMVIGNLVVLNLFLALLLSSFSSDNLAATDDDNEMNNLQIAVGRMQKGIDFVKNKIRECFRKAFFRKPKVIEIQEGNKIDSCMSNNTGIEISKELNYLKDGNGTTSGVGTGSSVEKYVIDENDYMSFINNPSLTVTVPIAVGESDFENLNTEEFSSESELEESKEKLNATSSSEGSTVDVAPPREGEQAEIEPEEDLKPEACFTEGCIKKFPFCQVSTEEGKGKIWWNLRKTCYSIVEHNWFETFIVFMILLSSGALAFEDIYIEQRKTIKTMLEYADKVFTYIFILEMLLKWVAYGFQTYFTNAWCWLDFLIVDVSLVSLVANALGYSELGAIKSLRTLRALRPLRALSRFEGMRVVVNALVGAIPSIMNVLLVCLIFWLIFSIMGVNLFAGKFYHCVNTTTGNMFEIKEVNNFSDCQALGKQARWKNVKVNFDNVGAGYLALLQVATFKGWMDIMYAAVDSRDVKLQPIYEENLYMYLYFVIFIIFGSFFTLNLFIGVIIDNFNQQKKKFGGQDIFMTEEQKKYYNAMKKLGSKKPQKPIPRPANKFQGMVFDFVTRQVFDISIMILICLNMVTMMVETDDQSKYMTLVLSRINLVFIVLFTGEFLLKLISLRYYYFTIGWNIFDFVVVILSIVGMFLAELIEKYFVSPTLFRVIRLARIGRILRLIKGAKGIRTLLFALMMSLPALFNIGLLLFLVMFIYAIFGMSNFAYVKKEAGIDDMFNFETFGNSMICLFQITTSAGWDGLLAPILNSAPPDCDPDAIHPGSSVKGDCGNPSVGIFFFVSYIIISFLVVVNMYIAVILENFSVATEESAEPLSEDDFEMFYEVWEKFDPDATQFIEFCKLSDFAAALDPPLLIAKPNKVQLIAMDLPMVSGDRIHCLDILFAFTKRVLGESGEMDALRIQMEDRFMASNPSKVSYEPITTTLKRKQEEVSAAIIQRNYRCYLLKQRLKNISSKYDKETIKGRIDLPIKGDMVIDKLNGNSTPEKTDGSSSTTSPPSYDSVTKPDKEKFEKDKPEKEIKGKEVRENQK
# protocol_details: cell-based or functional assay
Ends that are not written are not given here.
recorded_metric: IC50 Nav1.3 (µM); inhibition of channel current, patch clamp

{"columns": ["binder", "result"],
 "data": [
  ["ACLGFGEKCNPSNDKCCKSSSLVCSQKHKWCKYGW (disulfide (positions not given here); not fully specified (bridges); also: three disulphide bridges, probably C1-C4, C2-C5, C3-C6) [Peptide C]", "1.2 µM"],
  ["YCQEFLWTCDEERKCCGDMVCRLWCKKRL-NH2 (disulfide (positions not given here); not fully specified (bridges); also: three disulphide bridges, probably C1-C4, C2-C5, C3-C6) [Peptide B]", "0.23 µM"],
  ["DDCLGMFSSCDPDNDKCCEGRKCNRKDKWCKYVL-NH2 (disulfide (positions not given here); not fully specified (bridges); also: three disulphide bridges, probably C1-C4, C2-C5, C3-C6) [Peptide A]", "1.75 µM"],
  ["DCLGWFKGCDPDNDKCCEGYKCNRRDKWCKYKLW (disulfide (positions not given here); not fully specified (bridges); also: three disulphide bridges, probably C1-C4, C2-C5, C3-C6) [Peptide F]", "0.13 µM"]
]}
